The origin of these recorded values is paper PMC5962729.

Task for the reader: assign each of the following compounds its reported AUC(0-∞).
assay: Pharmacokinetic study of YCHD components and phase II metabolites in normal rats (UHPLC-MS/MS, sulfatase enzymolysis); format: in vivo, rat; conditions: Control group (normal rats), single oral YCHD 12 g/kg, plasma
Please respond with the number in µg·min/L and leave the unit unwritten.

q: Any idea what AUC(0-∞) was measured for O=C(O)c1cc(O)c2c(c1)C(=O)c1cccc(O)c1C2=O [Rhein] ?
a: 874792.3

q: Any idea what AUC(0-∞) was measured for CC(=O)c1ccc(O)cc1 [4-hydroxyacetophenone, 4-Hydroxyacetophenone] ?
a: 192358.2

q: Any idea what AUC(0-∞) was measured for O=C(/C=C/c1ccc(O)c(O)c1)O[C@@H]1C[C@](O)(C(=O)O)C[C@@H](O)[C@H]1O [Chlorogenic acid] ?
a: 11559.2

q: Any idea what AUC(0-∞) was measured for COC(=O)C1=CO[C@@H](O[C@@H]2O[C@H](CO[C@@H]3O[C@H](CO)[C@@H](O)[C@H](O)[C@H]3O)[C@@H](O)[C@H](O)[C@H]2O)[C@@H]2C(CO)=CC[C@H]12 [genipin-1-β-D-gentiobiodide, Genipin-1-β-D-gentiobiodide] ?
a: 38557.0

###

test: Pharmacokinetic study of YCHD components and phase II metabolites in normal rats (UHPLC-MS/MS, sulfatase enzymolysis); assay type: in vivo, rat; conditions: Sprague Dawley, rat; Control group (normal rats), single oral YCHD 12 g/kg, plasma; read-out: MRT (0-∞) (converted)
endpoint: MRT inf (h)
Please respond with the number in h and leave the unit unwritten.

q: Any idea what MRT inf was measured for O=C(O)/C=C/c1ccc(O)c(O)c1 [Caffeic acid] ?
a: 1.42

###

experiment: Pharmacokinetic study of YCHD components and phase II metabolites in ANIT-induced cholestatic rats (UHPLC-MS/MS, sulfatase enzymolysis); format: in vivo, rat; details: Sprague Dawley, rat, plasma, po, 12 g/kg; read-out: CLz/F
endpoint: CL/F (mL/min/kg)
Please respond with the number in mL/min/kg and leave the unit unwritten.

q: Any idea what CL/F was measured for O=C(O)/C=C/c1ccc(O)c(O)c1 ?
a: 1190

###

assay: Pharmacokinetic study of YCHD components and phase II metabolites in ANIT-induced cholestatic rats (UHPLC-MS/MS, sulfatase enzymolysis); assay type: in vivo, rat; conditions: Model group (ANIT 50 mg/kg cholestatic rats), single oral YCHD 12 g/kg, plasma
Quick rule: AUC(0-∞) of at least 300000 µg·min/L means MET, below that means NOT MET.

q: Form field: AUC(0-∞) at least 300000 µg·min/L? Entry: CC(=O)c1ccc(O)cc1 [4-hydroxyacetophenone, 4-Hydroxyacetophenone]
a: NOT MET

q: Form field: AUC(0-∞) at least 300000 µg·min/L? Entry: O=C(/C=C/c1ccc(O)c(O)c1)O[C@@H]1C[C@](O)(C(=O)O)C[C@@H](O)[C@H]1O
a: NOT MET

q: Form field: AUC(0-∞) at least 300000 µg·min/L? Entry: O=C(O)/C=C/c1ccc(O)c(O)c1
a: NOT MET

q: Form field: AUC(0-∞) at least 300000 µg·min/L? Entry: COC(=O)C1=CO[C@@H](O[C@@H]2O[C@H](CO[C@@H]3O[C@H](CO)[C@@H](O)[C@H](O)[C@H]3O)[C@@H](O)[C@H](O)[C@H]2O)[C@@H]2C(CO)=CC[C@H]12 [genipin-1-β-D-gentiobiodide, Genipin-1-β-D-gentiobiodide]
a: NOT MET

q: Form field: AUC(0-∞) at least 300000 µg·min/L? Entry: O=C(O)c1cc(O)c2c(c1)C(=O)c1cccc(O)c1C2=O
a: NOT MET

q: Form field: AUC(0-∞) at least 300000 µg·min/L? Entry: COC(=O)C1=CO[C@@H](O[C@@H]2O[C@H](CO)[C@@H](O)[C@H](O)[C@H]2O)[C@@H]2C(CO)=CC[C@H]12 [Geniposide]
a: MET

q: Form field: AUC(0-∞) at least 300000 µg·min/L? Entry: O=C(O)C1=CO[C@@H](O[C@@H]2O[C@H](CO)[C@@H](O)[C@H](O)[C@H]2O)[C@@H]2C(CO)=CC[C@H]12
a: MET

###

experiment: Pharmacokinetic study of YCHD components and phase II metabolites in ANIT-induced cholestatic rats (UHPLC-MS/MS, sulfatase enzymolysis); format: in vivo, rat; details: rat, plasma, po, 12 g/kg; read-out: t1/2z
Task for the reader: assign each of the following compounds its reported half-life.
Please respond with the number in h and leave the unit unwritten.

q: Any idea what half-life was measured for O=C(O)c1cc(O)c2c(c1)C(=O)c1cccc(O)c1C2=O [Rhein] ?
a: 2.19

q: Any idea what half-life was measured for O=C(O)/C=C/c1ccc(O)c(O)c1 [Caffeic acid] ?
a: 1.33

q: Any idea what half-life was measured for CC(=O)c1ccc(O)cc1 [4-hydroxyacetophenone, 4-Hydroxyacetophenone] ?
a: 25.9

q: Any idea what half-life was measured for O=C(/C=C/c1ccc(O)c(O)c1)O[C@@H]1C[C@](O)(C(=O)O)C[C@@H](O)[C@H]1O [Chlorogenic acid] ?
a: 27.6

###

test: Pharmacokinetic study of YCHD components and phase II metabolites in ANIT-induced cholestatic rats (UHPLC-MS/MS, sulfatase enzymolysis); format: in vivo, rat; settings: rat, in vivo, po, 12 g/kg; read-out: CLz/F
endpoint: CL/F (mL/min/kg)
Please respond with the number in mL/min/kg and leave the unit unwritten.

q: Any idea what CL/F was measured for COC(=O)C1=CO[C@@H](O[C@@H]2O[C@H](CO)[C@@H](O)[C@H](O)[C@H]2O)[C@@H]2C(CO)=CC[C@H]12 [Geniposide] ?
a: 45

###

test: Pharmacokinetic study of YCHD components and phase II metabolites in ANIT-induced cholestatic rats (UHPLC-MS/MS, sulfatase enzymolysis); type: in vivo, rat; conditions: Model group (ANIT 50 mg/kg cholestatic rats), single oral YCHD 12 g/kg, plasma
endpoint: Ka (min⁻¹)
Please respond with the number in min⁻¹ and leave the unit unwritten.

q: Any idea what Ka was measured for COC(=O)C1=COC(OC2OC(CO)C(O)C(O)C2O)C2C(CO)=CC(O)C12 (centres unmarked) [Scandoside methyl ester] ?
a: 22.6

q: Any idea what Ka was measured for CC(=O)c1ccc(O)cc1 [4-hydroxyacetophenone, 4-Hydroxyacetophenone] ?
a: 202.7

q: Any idea what Ka was measured for O=C(/C=C/c1ccc(O)c(O)c1)O[C@@H]1C[C@](O)(C(=O)O)C[C@@H](O)[C@H]1O [Chlorogenic acid] ?
a: 38.945

q: Any idea what Ka was measured for O=C(O)c1cc(O)c2c(c1)C(=O)c1cccc(O)c1C2=O [Rhein] ?
a: 478.1

q: Any idea what Ka was measured for COC(=O)C1=CO[C@@H](O[C@@H]2O[C@H](CO[C@@H]3O[C@H](CO)[C@@H](O)[C@H](O)[C@H]3O)[C@@H](O)[C@H](O)[C@H]2O)[C@@H]2C(CO)=CC[C@H]12 [genipin-1-β-D-gentiobiodide, Genipin-1-β-D-gentiobiodide] ?
a: 106.8

q: Any idea what Ka was measured for O=C(O)/C=C/c1ccc(O)c(O)c1 [Caffeic acid] ?
a: 75.2

q: Any idea what Ka was measured for O=C(O)C1=CO[C@@H](O[C@@H]2O[C@H](CO)[C@@H](O)[C@H](O)[C@H]2O)[C@@H]2C(CO)=CC[C@H]12 [Geniposidic acid] ?
a: 41280.6

q: Any idea what Ka was measured for COC(=O)C1=CO[C@@H](O[C@@H]2O[C@H](CO)[C@@H](O)[C@H](O)[C@H]2O)[C@@H]2C(CO)=CC[C@H]12 [Geniposide] ?
a: 1543.0

###

assay: Pharmacokinetic study of YCHD components and phase II metabolites in ANIT-induced cholestatic rats (UHPLC-MS/MS, sulfatase enzymolysis); assay type: in vivo, rat; conditions: Sprague Dawley, rat, plasma, po, 12 g/kg
endpoint: Tmax (min)
Please respond with the number in min and leave the unit unwritten.

q: Any idea what Tmax was measured for O=C(O)/C=C/c1ccc(O)c(O)c1 ?
a: 24

###

test: Pharmacokinetic study of YCHD components and phase II metabolites in normal rats (UHPLC-MS/MS, sulfatase enzymolysis); assay type: in vivo, rat; conditions: rat; Control group (normal rats), single oral YCHD 12 g/kg, plasma
endpoint: Cmax (ng/mL)
Please respond with the number in ng/mL and leave the unit unwritten.

q: Any idea what Cmax was measured for CC(=O)c1ccc(O)cc1 [4-hydroxyacetophenone, 4-Hydroxyacetophenone] ?
a: 1580

q: Any idea what Cmax was measured for COC(=O)C1=CO[C@@H](O[C@@H]2O[C@H](CO[C@@H]3O[C@H](CO)[C@@H](O)[C@H](O)[C@H]3O)[C@@H](O)[C@H](O)[C@H]2O)[C@@H]2C(CO)=CC[C@H]12 [genipin-1-β-D-gentiobiodide, Genipin-1-β-D-gentiobiodide] ?
a: 106

q: Any idea what Cmax was measured for O=C(/C=C/c1ccc(O)c(O)c1)O[C@@H]1C[C@](O)(C(=O)O)C[C@@H](O)[C@H]1O ?
a: 33
